From: patent US20240279318A1

# TGT: T1, AFP158/HLA-A*02:01 complex (human)
# T1 construct: biotinylated on the BSP by BirA for ELISA and panning; also called biotinylated AFP158/HLA-A*02:01 complex; Bio-AFP158
# ASSAY REMARKS: SPR, antibody captured via mIgG2a-Fc, complex as analyte

BINDER: AS148691 scFv-mIgG2aFc (Fc fusion, not shown: a dimerising Fc or GST, i647-labelled for flow cytometry) DIQMTQSPSSLSASVGDRVTITCRASQSVSSAVAWYQQKPGKAPKLLIYSASSLYSGVPSRFSGSRSGTDFTLTISSLQPEDFATYYCQQYYGAYLITFGQGTKVEIKGGGGSGGGGSGGGGSEVQLVESGGGLVQPGGSLRLSCAASGFNLYYSSIHWVRQAPGKGLEWVASIYSSYGSTSYADSVKGRFTISADTSKNTAYLQMNSLRAEDTAVYYCARVGPGYYGIDYWGQGTLVTVSS
koff [s⁻¹]: 0.005
--
BINDER: AS179732 scFv-mIgG2aFc (Fc fusion, not shown: a dimerising Fc or GST, Camel scFv; i647-labelled for flow cytometry) NFMLTQPPSMSGSPRQSVTISCTGSSSNIGGNYVNWYQHLPGTAPKLLIYDNSNRASGVPERFSGSKSGSSASLTITGLQAEDEGDYYCASWDDSLSGAVFGGGTHLTVLGGGGSGGGGSGGGGSEVQLVESGGGLVQPGGSLRLSCAASGFTFLNYAMSWVRQAPGKGLEWVSSNSGAGSTYYSDSVKGRFTISRDYAKNVVYLQLNSLKTEDTGMYYCAKGTNVGSWSSLHYWGQGTQVTVSS
koff [s⁻¹]: 0.0086
